# Experimental target: DYRK1A (Homo sapiens)
# Experiment description: DYRK1A kinase inhibition
# Format: biochemical
Measured metric: IC50
# number then unit; no other words

## Input Quick check: IC50 of O=C(O[C@@H]1Cc2c(O)cc(O)cc2O[C@@H]1c1cc(O)c(O)c(O)c1)c1cc(O)c(O)c(O)c1 [EGCG, Epigallocatechin gallate, reference compound] ?
## Output 235 nM

====

The following are reported pIC50 results, target or system PIM3 (Homo sapiens).
Please note pIC50 is a logarithmic value: minus log10 of concentration in mol/L. Answer with that number alone.

## Input Quick check: pIC50 of O=C(O[C@@H]1Cc2c(O)cc(O)cc2O[C@H]1c1cc(O)c(O)c(O)c1)c1c(F)c(O)c(O)c(O)c1F ?
## Output 5.22

## Input Moving on to the next compound: COc1cc(C(=O)O[C@@H]2Cc3c(O)cc(O)cc3O[C@H]2c2cc(O)c(O)c(O)c2)c(F)c(O)c1O
## Output 6.09

====

# Experiment description: Pharmacokinetics and lung-tissue distribution after single IV, IN or PO dose
# Format: in vivo, C57BL/6 mice
# Condition: C57BL/6, inhaled or intranasal; mouse, IN (60 mg/kg), lung
Measured metric: half-life (h)
Express the result in h but write the number alone.

## Input Quick check: half-life of COc1cc(C(=O)O[C@@H]2Cc3c(O)cc(O)cc3O[C@H]2c2cc(O)c(O)c(O)c2)c(F)c(O)c1O ?
## Output 3.93

====

# Experiment description: Pharmacokinetics and lung-tissue distribution after single IV, IN or PO dose
# Assay type: in vivo, C57BL/6 mice
# Condition: C57BL/6, inhaled or intranasal; mouse, IN (60 mg/kg), lung
# Procedure: Plasma concentrations were measured using LC-MS/MS, and PK parameters were calculated with WinNonlin. […] The formulation is based on the solubilizer and penetration enhancer (2-hydroxypropyl)-β-cyclodextrin (HP-β-CD), PEG-400, and water. They were given a commercial mice chow and water ad libitum. The experiments started after acclimation for at least 1 week. Dosing solutions were made fresh. Fasted mice were administered the test drug by oral (PO), intranasal (IN), and intravenous (IV) routes. […]
Measured metric: Tmax (h)
Express the result in h but write the number alone.

## Input Quick check: Tmax of COc1cc(C(=O)O[C@@H]2Cc3c(O)cc(O)cc3O[C@H]2c2cc(O)c(O)c(O)c2)c(F)c(O)c1O [ABI-171] ?
## Output 4

====

# Experiment description: Pharmacokinetics and lung-tissue distribution after single IV, IN or PO dose
# Assay type: in vivo, C57BL/6 mice
# Condition: C57BL/6, mouse; IV (10 mg/kg), plasma; read-out: Vz(IV)
Measured metric: Vd (L/kg)
Express the result in L/kg but write the number alone.

## Input Quick check: Vd of O=C(O[C@@H]1Cc2c(O)cc(O)cc2O[C@@H]1c1cc(O)c(O)c(O)c1)c1cc(O)c(O)c(O)c1 [EGCG, Epigallocatechin gallate, reference compound] ?
## Output 45.2

====

# Experiment description: Pharmacokinetics and lung-tissue distribution after single IV, IN or PO dose
# Format: in vivo, C57BL/6 mice
# Condition: C57BL/6, inhaled or intranasal; mouse, IN (60 mg/kg), lung; read-out: Cmax
Measured metric: Cmax (ng/g)
Express the result in ng/g but write the number alone.

## Input Quick check: Cmax of COc1cc(C(=O)O[C@@H]2Cc3c(O)cc(O)cc3O[C@H]2c2cc(O)c(O)c(O)c2)c(F)c(O)c1O ?
## Output 8740

====

# Experiment description: Pharmacokinetics and lung-tissue distribution after single IV, IN or PO dose
# Type: in vivo, C57BL/6 mice
# Condition: C57BL/6, mouse; IV (10 mg/kg), plasma
Measured metric: AUC(0-inf) (ng·h/mL)
Express the result in ng·h/mL but write the number alone.

## Input Quick check: AUC(0-inf) of O=C(O[C@@H]1Cc2c(O)cc(O)cc2O[C@@H]1c1cc(O)c(O)c(O)c1)c1cc(O)c(O)c(O)c1 [EGCG, Epigallocatechin gallate, reference compound] ?
## Output 1830

====

# Experiment description: Pharmacokinetics and lung-tissue distribution after single IV, IN or PO dose
# Assay type: in vivo, C57BL/6 mice
# Condition: IN route (60 mg/kg), total not unbound drug; read-out: theoretical cellular concentration in the lungs at Cmax
Measured metric: Cmax

## Input Quick check: Cmax of COc1cc(C(=O)O[C@@H]2Cc3c(O)cc(O)cc3O[C@H]2c2cc(O)c(O)c(O)c2)c(F)c(O)c1O [ABI-171] ?
## Output ~17.8 µM

====

# Experiment description: Pharmacokinetics and lung-tissue distribution after single IV, IN or PO dose
# Assay type: in vivo, C57BL/6 mice
# Condition: C57BL/6, mouse; IV (10 mg/kg), plasma
Measured metric: AUC(0-t) (ng·h/mL)
Express the result in ng·h/mL but write the number alone.

## Input Quick check: AUC(0-t) of O=C(O[C@@H]1Cc2c(O)cc(O)cc2O[C@@H]1c1cc(O)c(O)c(O)c1)c1cc(O)c(O)c(O)c1 [EGCG, Epigallocatechin gallate, reference compound] ?
## Output 1800

====

# Experimental target: PIM2 (Homo sapiens)
# Sequence (Q9P1W9 whole entry, species assumed): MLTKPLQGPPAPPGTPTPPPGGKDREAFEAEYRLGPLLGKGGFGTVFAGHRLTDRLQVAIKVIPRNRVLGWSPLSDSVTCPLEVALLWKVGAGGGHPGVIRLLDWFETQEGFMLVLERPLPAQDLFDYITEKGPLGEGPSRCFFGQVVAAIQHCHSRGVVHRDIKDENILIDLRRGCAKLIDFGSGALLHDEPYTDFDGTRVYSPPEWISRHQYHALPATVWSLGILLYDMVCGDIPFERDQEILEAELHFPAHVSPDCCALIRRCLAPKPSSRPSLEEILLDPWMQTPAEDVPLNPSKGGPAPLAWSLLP
Measured metric: IC50 (nM)
Express the result in nM but write the number alone.

## Input Quick check: IC50 of COc1cc(C(=O)O[C@@H]2Cc3c(O)cc(O)cc3O[C@H]2c2cc(O)c(O)c(O)c2)c(F)c(O)c1O [ABI-171] ?
## Output 255

====

For each of the compounds below, state its pIC50.
# Experimental target: DYRK1A (Homo sapiens, UniProt Q13627)
# Experiment description: DYRK1A kinase inhibition
# Format: biochemical
# Condition: read-out: DYRK1A IC50
Please note pIC50 is a logarithmic value: minus log10 of concentration in mol/L. Answer with that number alone.

## Input Look up pIC50 with DYRK1A (Homo sapiens, UniProt Q13627) for this compound: COc1cc(C(=O)O[C@@H]2Cc3c(O)cc(O)cc3O[C@H]2c2cc(O)c(O)c(O)c2)c(F)c(O)c1O
## Output 7.14

## Input Moving on to the next compound: O=C(O[C@@H]1Cc2c(O)cc(O)cc2O[C@H]1c1cc(O)c(O)c(O)c1)c1c(F)c(O)c(O)c(O)c1F
## Output 7.55

Origin of measurements: paper PMC11546061
